- assay-target: T1, Human β-cardiac mutant myosin S2 peptide (E924K), 19 residues (human, also: in FRET: FITC on N-terminus of one monomer, terbium-DTPA-cytosine chelate on C-terminal Lys of the other)
- T1 construct: E924K already in the entry; also called Cardiac Myosin S2 Mutant, E924K
- T1 peptide: EMNKRLEDEEEMNAELTAK
- test: FRET donor lifetime of 0.1 µM labelled dimer titrated with stabilizer; text value and unit differ from Table 3
Where no end group is shown, it is not given here.
endpoint: pKd
Interpret pKd as the negative base-10 log of the concentration measured in mol/L.

Report pKd for KKKKKKKKFKAKKKKKK (also called stabilizing peptide; unlabeled stabilizer) [Stabilizer peptide] please.
1.44
